inhibition reference
Assay: inhibitors of TNFa-induced NFkB p65 translocation, primary screen, imaging, HUVEC, MLSMR starter and 10KST1 sets (AID 438);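 note: compound added about 3h40 before a 20 min TNFalpha stimulation; signal is the nuclear over cytoplasmic p65 intensity ratio per well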
Details: HUVEC TNFa-induced p65 nuclear translocation; at 2 µM, active compounds read high, 0% TNFa-plus-vehicle, 100% no-TNFa wells
Activity calls are given as the source filed them.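 Rule for the calls: active = inhibition above 20% together with a positive visual image hit; inconclusive = visual image hit but inhibition not above 20%; inactive = no visual image hit.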

Worked cases, inhibition given:
Compound: CN(C)c1nc(OCCOC(=O)Nc2ccc(Cl)cc2Cl)nc(N(C)C)n1
Reported Property: inhibition
Result: -14.7% (inactive)
--
Compound: O=C1C(=O)N(CCN2CCOCC2)C(c2ccccn2)/C1=C(/O)c1ccccc1 (centres undefined)
Reported Property: inhibition
Result: -4.7% (inactive)
--
Compound: CC(C)Cc1[nH]c(=O)c(C#N)c2c1CCCC2
Reported Property: inhibition
Result: 1.3% (inactive)
--
Compound: CC1C/C=C/C=C/C=C/C=C/C(O[C@@H]2O[C@H](C)[C@@H](O)[C@H](N)[C@@H]2O)CC2OC(O)(CC(O)CC3OC3/C=C/C(=O)O1)CC(O)C2C(=O)O (some centres undefined)
Reported Property: inhibition
Result: -3.2% (inactive)
--
Compound: CSC(=Nc1ccccc1)C1=C(O)COC1=O
Reported Property: inhibition
Result: -17.4% (inactive)
--
Compound: N#CC1=C(SCC(=O)c2ccc(Cl)cc2)NC2=C(C(=O)CCC2)C1c1ccco1 (centres undefined)
Reported Property: inhibition
Result: -6.1% (inactive)
--
Compound: CCOC(=O)CSC1=C(C#N)C(c2ccc(OC)cc2)C2=C(CC(C)(C)CC2=O)N1 (centres undefined)
Reported Property: inhibition
Result: -10.7% (inactive)
--
Compound: CC(=O)O[C@H]1C[C@@H]2CC[C@@H]3[C@H](CC[C@@]4(C)[C@H]3C[C@H]([N+]3(C)CCCCC3)[C@@H]4OC(C)=O)[C@@]2(C)C[C@@H]1[N+]1(C)CCCCC1
Reported Property: inhibition
Result: 0.4% (inactive)

Kindly review the next compound as well.
Data request, read-out inhibition, for O=C(O)CC(SCc1ccc(C(=O)O)o1)C(=O)O (centres undefined)
-17.8% (inactive)
